src = ChEMBL document CHEMBL1961873

- Measured On: Serine/threonine-protein kinase pim-3 (Homo sapiens) (UniProt Q86V86)
- Assay Conditions: at 0.1 µM
Reported Endpoint: inhibition (%)
Answers are plain numbers, in %.

Use the examples below as a reference point.
COC(=O)Nc1nc2cc(Oc3cccc(NC(=O)Nc4cc(C(F)(F)F)ccc4F)c3)ccc2[nH]1; 0.14
CCCN1CCC(Oc2cc(Nc3nc(Nc4cccc(F)c4C(N)=O)c4cc[nH]c4n3)c(OC)cc2Cl)CC1; 1.54
Nc1ncnc2occ(-c3ccc(NC(=O)Nc4cc(C(F)(F)F)cc(C(F)(F)F)c4)cc3)c12; -1.29
O=C1Nc2ccc(C(=O)c3ccco3)cc2C1=Cc1cc(Cl)c(O)c(Cl)c1; 12
CS(=O)(=O)CCNCc1ccc(-c2ccc3ncnc(Nc4ccc(OCc5ccccc5)c(Cl)c4)c3c2)o1; 0.47

List the reported inhibition of each compound below.
1. Cn1cc(C=C2C(=O)Nc3cccnc32)c2ccccc21
2. COc1cc2ncn(-c3cc(OCc4ccccc4C(F)(F)F)c(C(N)=O)s3)c2cc1OC
3. Cc1cccc(-c2n[nH]cc2-c2ccc3ncccc3n2)n1
4. Cc1ccc(NC(=O)c2ccnc(N3CCCC3)c2)cc1-c1ccc(C(=O)NCC2CC2)cc1
5. Nc1ncnc2occ(-c3ccc(NC(=O)Nc4cccc(C(F)(F)F)c4)cc3)c12

Completion:
1: 0.47; 2: -0.3; 3: -1.47; 4: -0.52; 5: 0.78

---

- Measured On: 5'-AMP-activated protein kinase catalytic subunit alpha-1 (Homo sapiens)
- Assay Conditions: at 1 µM
Give inhibition for every item shown.
Numbers only, in %.

Use the examples below as a reference point.
COc1ccc(-c2coc3ncnc(N)c23)cc1; 3.4
COc1ccc2cc(-c3c(-c4ccncc4)nc(-c4ccc([S+](C)[O-])cc4)n3C)ccc2c1 (stereo not given); 1.29
CNC(=O)c1cncc(/C=C/c2c(Cl)cccc2Cl)c1; 3.59

List the reported inhibition of each compound below.
1. O=C1NC(=O)C(N2CCc3ccccc32)=C1c1ccc(Cl)cc1
2. CCn1c(-c2nonc2N)nc2c(N3CCCC3)nccc21
3. NS(=O)(=O)c1cccc(-c2ccc3c(NC(=O)C4CC4)n[nH]c3c2)c1
4. CCn1c(-c2nonc2N)nc2c(C#CC(C)(C)O)nc(CN3CCCC3)cc21
5. COc1cc(C=NNc2ncnc3c2cnn3-c2ccccc2)ccc1O
6. COc1cc2c(cc1Nc1nc(N3CCc4ccccc43)c3cc[nH]c3n1)N(C(=O)CN(C)C)CC2
7. Nc1nc(-c2ccc3c(c2)C(=Cc2cc(Br)c(O)c(Br)c2)C(=O)N3)cs1

Completion:
1: 4.36; 2: 0.11; 3: 0.34; 4: 3.34; 5: 4.76; 6: 0.36; 7: 6.79

---

- Measured On: Serine/threonine-protein kinase D3 (Homo sapiens)
- Assay Conditions: at 1 µM
Reported Endpoint: inhibition

Use the examples below as a reference point.
NS(=O)(=O)c1cccc(-c2ccc3c(NC(=O)C4CC4)n[nH]c3c2)c1; 0.3%
Cc1cccc(-c2n[nH]cc2-c2ccc3ncccc3n2)n1; 30.5%
CCN1CCC(CC(=O)Nc2n[nH]c3nc(-c4cccs4)c(Br)cc23)CC1; -0.88%
Fc1cccc(COc2ccc(Nc3ncnc4sc(-c5cccs5)cc34)cc2Cl)c1; -0.35%
CN1CCC(C(=O)Nc2n[nH]c3nnc(-c4ccccc4)cc23)CC1; 5.47%
Nc1nc(-c2ccc3c(c2)C(=Cc2cc(Br)c(O)c(Br)c2)C(=O)N3)cs1; -1.34%
CCCN1CCC=C(c2ccc(Nc3nc(Nc4ccccc4C(N)=O)c4cc[nH]c4n3)c(C)c2)C1; 61.7%
Nc1ncnc2occ(-c3ccc(NC(=O)Nc4cc(C(F)(F)F)cc(C(F)(F)F)c4)cc3)c12; 1.15%

List the reported inhibition of each compound below.
1. NC(=O)c1ccc(-c2nc(-c3ccccn3)c(-c3ccc4c(c3)OCO4)[nH]2)cc1
2. O=C1NC(=O)C(c2ccc(Cl)cc2)=C1Nc1ccc(Cl)c(C(=O)O)c1
3. Nc1nc(-c2ccccn2)c(-c2ccc3ncccc3n2)s1
4. CCn1c(-c2nonc2N)nc2cncc(C(=O)N3CCNCC3)c21

Completion:
5.59%
-0.38%
3.13%
4.94%

---

- Measured On: Serine/threonine-protein kinase Nek2 (Homo sapiens) (UniProt P51955)
- Sequence (P51955 whole entry): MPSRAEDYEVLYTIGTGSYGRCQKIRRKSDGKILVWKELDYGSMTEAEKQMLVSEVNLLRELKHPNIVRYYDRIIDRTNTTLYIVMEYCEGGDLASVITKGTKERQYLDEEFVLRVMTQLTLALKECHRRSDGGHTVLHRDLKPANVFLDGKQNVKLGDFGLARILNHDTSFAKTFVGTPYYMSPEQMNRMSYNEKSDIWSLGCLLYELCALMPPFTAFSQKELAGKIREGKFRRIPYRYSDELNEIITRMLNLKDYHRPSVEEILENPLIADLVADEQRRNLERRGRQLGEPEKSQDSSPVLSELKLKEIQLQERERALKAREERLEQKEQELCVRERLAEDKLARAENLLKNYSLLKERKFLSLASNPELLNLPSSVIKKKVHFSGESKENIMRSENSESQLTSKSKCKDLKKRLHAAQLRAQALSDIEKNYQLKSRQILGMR
- Assay Conditions: at 1 µM
Give inhibition for every item shown.
Give bare numbers, in %.

List the reported inhibition of each compound below.
1. N#Cc1c(NC(=O)c2cccc3ccccc23)sc2c1CCCC2
2. CCn1c(-c2nonc2N)nc2cncc(C(=O)N3CCNCC3)c21
3. CC(C)=Cc1cccc2c1/C(=N/Nc1ccc(S(N)(=O)=O)cc1)C(=O)N2
4. Nc1nc(-c2ccccn2)c(-c2ccc3ncccc3n2)s1

Completion:
1. 4.37
2. 5.88
3. -0.31
4. 2.7

List the reported inhibition of each compound below.
1. O=C1NC(=O)C(c2ccccc2Cl)=C1Nc1cccc(O)c1
2. CC1=C(C(=O)Nc2ccc3[nH]ncc3c2)C(c2ccc(F)cc2)NC(=O)N1 (stereo unspecified)
3. COc1ccc(COc2ccc(Cc3cnc(N)nc3N)cc2OC)cc1
4. c1cnn2ncc(-c3ccnc(Nc4ccc5c(c4)OCCO5)n3)c2c1
5. COc1ccccc1Nc1ncc(-c2ccccc2)o1
6. CCn1c(-c2nonc2N)nc2c(N3CCCC3)nccc21

Completion:
1: 3.05; 2: 2.73; 3: -1.4; 4: 15.4; 5: 6.16; 6: -0.91

---

- Measured On: cGMP-dependent protein kinase 2 (Homo sapiens)
- Assay Conditions: at 0.1 µM
Respond with YES for inhibition values of 2% and above, NO for values below.

Prompt: Does inhibition meet or surpass 2% for CS(=O)(=O)CCNCc1ccc(-c2ccc3ncnc(Nc4ccc(OCc5ccccc5)c(Cl)c4)c3c2)o1 ?
Completion: NO

---

- Measured On: Ephrin type-A receptor 4 (Homo sapiens) (UniProt P54764)
- Sequence (P54764 whole entry): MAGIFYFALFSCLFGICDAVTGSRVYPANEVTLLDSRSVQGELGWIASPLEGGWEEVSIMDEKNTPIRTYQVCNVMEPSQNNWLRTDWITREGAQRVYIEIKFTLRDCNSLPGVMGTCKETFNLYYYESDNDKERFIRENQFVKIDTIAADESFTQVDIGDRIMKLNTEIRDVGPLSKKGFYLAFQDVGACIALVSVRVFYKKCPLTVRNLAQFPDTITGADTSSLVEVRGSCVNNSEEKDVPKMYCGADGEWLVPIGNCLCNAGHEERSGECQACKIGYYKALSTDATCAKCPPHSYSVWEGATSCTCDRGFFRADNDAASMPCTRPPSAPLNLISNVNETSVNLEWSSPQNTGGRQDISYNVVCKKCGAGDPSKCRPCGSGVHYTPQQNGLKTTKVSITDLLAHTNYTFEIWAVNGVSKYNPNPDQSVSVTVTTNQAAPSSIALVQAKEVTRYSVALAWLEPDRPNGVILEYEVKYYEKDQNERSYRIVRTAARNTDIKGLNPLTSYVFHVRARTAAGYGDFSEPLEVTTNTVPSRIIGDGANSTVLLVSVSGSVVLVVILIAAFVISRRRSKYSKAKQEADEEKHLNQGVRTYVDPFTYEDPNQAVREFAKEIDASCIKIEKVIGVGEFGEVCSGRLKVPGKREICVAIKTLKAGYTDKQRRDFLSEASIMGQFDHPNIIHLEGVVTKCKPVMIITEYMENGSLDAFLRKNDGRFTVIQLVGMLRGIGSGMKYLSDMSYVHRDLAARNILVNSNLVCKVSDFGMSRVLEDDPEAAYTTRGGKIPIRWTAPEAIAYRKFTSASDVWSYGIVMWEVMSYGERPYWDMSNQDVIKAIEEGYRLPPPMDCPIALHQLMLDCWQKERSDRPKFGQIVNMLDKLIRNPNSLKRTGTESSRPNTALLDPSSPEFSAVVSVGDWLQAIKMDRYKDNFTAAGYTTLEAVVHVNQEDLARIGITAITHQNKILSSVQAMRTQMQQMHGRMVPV
- Assay Conditions: at 1 µM
- Description: GSK_PKIS: EPHA4 mean inhibition at 1 uM [Nanosyn]
Reported Endpoint: inhibition (%)
One number for each entry, in %.

COc1cc2ncn(-c3cc(O[C@@H](C)c4ccccc4Cl)c(C(N)=O)s3)c2cc1OC; 14.2
Nc1ncnc2occ(-c3ccc(NC(=O)Nc4cccc(C(F)(F)F)c4)cc3)c12; 78.3
CCn1c(-c2nonc2N)nc2c(C#CC(C)(C)O)nc(CN3CCCC3)cc21; -5.06
Cc1ccc(NC(=O)c2ccnc(N3CCCC3)c2)cc1-c1ccc(C(=O)NCC2CC2)cc1; 5.58
O=C1Nc2ccc(C(=O)c3ccco3)cc2C1=Cc1cc(Cl)c(O)c(Cl)c1; 14.3

List the reported inhibition of each compound below.
1. COc1ccc(-c2ccncc2)cc1C(N)=O
2. Cc1nnc(-c2ccc(C)c(-c3ccc(C(=O)Nc4cccc(C#N)c4)cc3)c2)o1
3. COc1cccc(-n2ncc3c(N/N=C/c4cccc(F)c4)ncnc32)c1

Completion:
1: 8.05; 2: 4.3; 3: 2.57

List the reported inhibition of each compound below.
1. COc1cc2ncn(-c3cc(O[C@H](C)c4ccccc4Cl)c(C(N)=O)s3)c2cc1OC
2. COc1ccc(-c2nn3ncccc3c2-c2ccnc(Nc3ccc(Cl)c(C(F)(F)F)c3)n2)cc1

Completion:
1. 26.8
2. 10.2

---

Give inhibition for every item shown.
- Measured On: Tyrosine-protein kinase ABL1 (Homo sapiens)
- Assay Conditions: at 0.1 µM
- Description: GSK_PKIS: ABL1 mean inhibition at 0.1 uM [Nanosyn]

Use the examples below as a reference point.
O=C1NC(=O)C(c2ccccc2Cl)=C1Nc1cccc(O)c1; 4.23%
O=C1Nc2ccc(C(=O)c3ccco3)cc2C1=Cc1cc(Cl)c(O)c(Cl)c1; 4.71%
COc1ccc(-c2ccncc2)cc1C(N)=O; 4.11%
Fc1cccc(COc2ccc(Nc3ncnc4sc(-c5cccs5)cc34)cc2Cl)c1; 1.23%
CS(=O)(=O)CCNCc1ccc(-c2ccc3ncnc(Nc4ccc(OCc5cccc(F)c5)c(C(F)(F)F)c4)c3c2)o1; 2.03%
CC1=C(C(=O)Nc2ccc3[nH]ncc3c2)C(c2ccc(Cl)c(Cl)c2)CC(=O)N1 (stereo not given); 2.43%
NCc1ccc(-c2nc(-c3ccc(Cl)c(O)c3)c(-c3ccncc3)[nH]2)cc1; 6.87%
CS(=O)(=O)CCNCc1nc(-c2ccc3ncnc(Nc4ccc(F)c(Cl)c4)c3c2)cs1; 3.89%
Nc1nc(-c2ccccn2)c(-c2ccc3ncccc3n2)s1; 5.61%
COc1ccc2cc(-c3c(-c4ccncc4)nc(-c4ccc([S+](C)[O-])cc4)n3C)ccc2c1 (stereo not given); 2.44%

List the reported inhibition of each compound below.
1. CC1=C(C(=O)Nc2ccc3[nH]ncc3c2)C(c2ccc(F)cc2)NC(=O)N1 (stereo not given)
2. CCn1c(-c2nonc2N)nc2c(C#CC(C)(C)O)nc(CN3CCCC3)cc21
3. CS(=O)(=O)CCN(CC#N)Cc1ccc(-c2ccc3ncnc(Nc4ccc(OCc5cccc(F)c5)c(Cl)c4)c3c2)o1
4. COc1cc2c(cc1Nc1nc(N3CCc4ccccc43)c3cc[nH]c3n1)N(C(=O)CN(C)C)CC2

Completion:
1. 3.51%
2. 0.66%
3. -2.3%
4. 2.76%

List the reported inhibition of each compound below.
1. NC(=O)c1cccc(Nc2nccc(Nc3cccc4[nH]ncc34)n2)c1
2. COC(=O)Nc1nc2cc(Oc3ccc(NC(=O)Nc4cccc(C(=O)O)c4)cc3)ccc2[nH]1

Completion:
["70.2%", "-2.66%"]

List the reported inhibition of each compound below.
1. CCc1cccc(NC(=O)Nc2ccc(Oc3ccc4nc(NC(=O)OC)[nH]c4c3)cc2)c1
2. COc1cc2ncn(-c3cc(O[C@H](C)c4ccccc4Cl)c(C(N)=O)s3)c2cc1OC
3. COc1ccccc1Nc1ncc(-c2ccccc2)o1
4. O=C1NC(=O)C(N2CCc3ccccc32)=C1c1ccc(Cl)cc1

Completion:
1. 7.41%
2. 7.25%
3. 8.63%
4. 4.41%
